measurement target: Retinaldehyde dehydrogenase 3 (Homo sapiens)
procedure summary: qHTS for Inhibitors of the Aldehyde Dehydrogenase Family (ALDH1A3) Validation screen (AID 2061312); further: nearly all actives have a fitted effect of over 45% in size
measurement context: ALDH1A3 enzyme inhibition qHTS validation, fluorescence; series mostly up to 84.7 µM
Inconclusive results are not listed. Activity calls are given as the source filed them. The call rests on the fitted dose curve; in most records, active means well fitted inhibition curve with a large enough effect; inconclusive means small, poorly fitted or top-dose-only effect; inactive means no such curve, though single readings can be large or run the other way.
Return exactly one item of 1 (yes) (active), 0 (no) (inactive)

# compound, qualitative label
data = [
    ("COc1cnc(-n2cnc(C)n2)c2[nH]cc(C(=O)C(=O)N3CCN(C(=O)c4ccccc4)CC3)c12", "0 (no)"),
]

Ask: Status in this test for CNCc1ccc(-c2[nH]c3cc(F)cc4c3c2CCNC4=O)cc1 ?
Result: 0 (no)

Ask: Lab log entry: CC(C)(C)c1ccc(S(=O)(=O)NCc2ccc(C(=O)Nc3cccnc3)cc2)cc1 — outcome as called in the assay?
Result: 0 (no)

Ask: Outcome? NC(=O)Nc1cc(-c2cccc(F)c2)sc1C(=O)N[C@H]1CCCNC1
Result: 0 (no)

Ask: What classification did CCCC1(c2ccccc2)NC(=O)N(CC(=O)N(C)Cc2c(F)cccc2Cl)C1=O (stereo unspecified) end up with in this test?
Result: 0 (no)

Ask: I'd appreciate the recorded outcome for COc1ccc2c(c1)CCC1C2CC[C@@]2(C)C1CC[C@@H]2NCCCCCCN1C(=O)C=CC1=O (stereo partly specified) from this test.
Result: 0 (no)

Ask: Hello, I am checking results. What call was entered for CCCCC1C(=O)N(c2ccccc2)N(c2ccccc2)C1=O ?
Result: 0 (no)
